We begin with a simple list: items and their reported inhibition.
target: Bromodomain-containing protein 4 (Homo sapiens, UniProt O60885); test: Inhibition of BRD4 in poly(I:C)-stimulated human SAECs TLR3-inducible IL-6 gene expression at 10 uM pre-incubated for 24 hrs before poly(I:C) stimulation for 4 hrs by qRT-PCR analysis relative to control
Report the figure in % without appending any unit label.

Ask | Any idea what its inhibition is? The compound is Cc1cc(-c2nc3ccccc3c(=O)[nH]2)cc(C)c1O
Reply | 81

Ask | Any idea what its inhibition is? The compound is COc1cc(OC)c2c(=O)[nH]c(-c3ccc(C(F)(F)F)c(C)c3)nc2c1
Reply | 45

Ask | Any idea what its inhibition is? The compound is COc1cc(OC)c2c(=O)[nH]c(-c3cc(C)c(O)c(C)c3)nc2c1
Reply | 75

Ask | Any idea what its inhibition is? The compound is Cc1cc(-c2nc3cc([N+](=O)[O-])ccc3c(=O)n2C)cc(C)c1O
Reply | 86

Ask | Any idea what its inhibition is? The compound is COc1cc(OC)c2c(=O)[nH]c(-c3ccc(O)cc3)nc2c1
Reply | 63
